# measurement_target: human CXCR4 (on cells, membrane extracts or viral lipoparticles) (human, UniProt P61073 1-352)
# Sequence (P61073 whole entry): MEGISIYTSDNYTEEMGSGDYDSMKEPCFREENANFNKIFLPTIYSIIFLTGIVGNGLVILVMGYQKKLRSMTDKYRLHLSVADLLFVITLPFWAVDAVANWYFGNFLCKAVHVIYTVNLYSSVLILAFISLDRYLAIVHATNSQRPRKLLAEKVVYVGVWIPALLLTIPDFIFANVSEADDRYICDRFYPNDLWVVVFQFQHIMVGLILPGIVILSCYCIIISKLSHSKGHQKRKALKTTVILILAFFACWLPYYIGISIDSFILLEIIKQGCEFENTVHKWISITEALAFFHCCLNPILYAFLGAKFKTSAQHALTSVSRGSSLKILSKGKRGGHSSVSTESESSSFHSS
# assay_remarks: cell-based or functional assay
Quick reference for IC50, CXCL-12 induced chemotaxis, MOLM-13 among some binders
quantity: IC50, CXCL-12 induced chemotaxis, MOLM-13 (nM)

- 281F12-55A01 (4CXCR281F12(Q108L)-35GS-A0110055A01) (bispecific antibody, the entry carries a c-myc-His6 tag; also made as Flag3-His6-tagged protein; also called CXCR4#2-CD123#2; BI#3/17) EVQLVESGGGLVQAGDSLRLSCAASGRAFSRYAMGWFRQAPGKEREFVAAIGWGPSKTNYADSVKGRFTISRDNAKNTVYLQMNTLKPEDTAVYSCAAKFVNTDSTWSRSEMYTYWGQGTLVTVSSGGGGSGGGGSGGGGSGGGGSGGGGSGGGGSGGGGSEVQLVESGGGSVQAGGSLRLSCTTSGRALNMYVMGWFRQAPGNEREFVAATSSSGGSTSYPDSVKGRFTISRDNAKNTVYLQMNSLKPEDTAAYRCAASPYVSTPTMNILEEYRYWGQGTLVTVSSAAAEQKLISEEDLNGAAHHHHHH: 7.85
- 281F12-57A07 (4CXCR281F12(Q108L)-35GS-A0110057A07) (bispecific antibody, the entry carries a c-myc-His6 tag; also made as Flag3-His6-tagged protein; also called CXCR4#2-CD123#1; BI#4/18) EVQLVESGGGLVQAGDSLRLSCAASGRAFSRYAMGWFRQAPGKEREFVAAIGWGPSKTNYADSVKGRFTISRDNAKNTVYLQMNTLKPEDTAVYSCAAKFVNTDSTWSRSEMYTYWGQGTLVTVSSGGGGSGGGGSGGGGSGGGGSGGGGSGGGGSGGGGSEVQLVESGGGLVQAGGSLRLSCAASGSIFSGNVMGWYRRQAPGKEREWVAAIASGGSIYYRDSVKGRFTISRDNAKNTVYLQMNSLKPEDTAVYYCNSHPPTLPYWGQGTLVTVSSAAAEQKLISEEDLNGAAHHHHHH: 6.83
- 14D09-55A01 (4CXCR014D09(Q108L)-35GS-A0110055A01) (bispecific antibody, the entry carries a c-myc-His6 tag; also made as Flag3-His6-tagged protein; also called CXCR4#1-CD123#2; BI#7/19) EVQLVESGGGLVQAGGSLRLSCVASGISSSKRNMGWYRQAPGKQRESVATISSGGNKDYTDAVKDRFTISRDTTKNTVYLQMNSLKPEDTAVYYCKIEAGTGWATRRGYTYWGQGTLVTVSSGGGGSGGGGSGGGGSGGGGSGGGGSGGGGSGGGGSEVQLVESGGGSVQAGGSLRLSCTTSGRALNMYVMGWFRQAPGNEREFVAATSSSGGSTSYPDSVKGRFTISRDNAKNTVYLQMNSLKPEDTAAYRCAASPYVSTPTMNILEEYRYWGQGTLVTVSSAAAEQKLISEEDLNGAAHHHHHH: 3.6
- 14D09-57A07 (4CXCR014D09(Q108L)-35GS-A0110057A07) (bispecific antibody, the entry carries a c-myc-His6 tag; also made as Flag3-His6-tagged protein; also called CXCR4#1-CD123#1; BI#16/20) EVQLVESGGGLVQAGGSLRLSCVASGISSSKRNMGWYRQAPGKQRESVATISSGGNKDYTDAVKDRFTISRDTTKNTVYLQMNSLKPEDTAVYYCKIEAGTGWATRRGYTYWGQGTLVTVSSGGGGSGGGGSGGGGSGGGGSGGGGSGGGGSGGGGSEVQLVESGGGLVQAGGSLRLSCAASGSIFSGNVMGWYRRQAPGKEREWVAAIASGGSIYYRDSVKGRFTISRDNAKNTVYLQMNSLKPEDTAVYYCNSHPPTLPYWGQGTLVTVSSAAAEQKLISEEDLNGAAHHHHHH: 3.6
- 55A01-14D09 (A0110055A01-35GS-4CXCR014D09(Q108L)) (bispecific antibody, the entry carries a c-myc-His6 tag; also made as Flag3-His6-tagged protein; also called CD123#2-CXCR4#1; BI#8/22) EVQLVESGGGSVQAGGSLRLSCTTSGRALNMYVMGWFRQAPGNEREFVAATSSSGGSTSYPDSVKGRFTISRDNAKNTVYLQMNSLKPEDTAAYRCAASPYVSTPTMNILEEYRYWGQGTLVTVSSGGGGSGGGGSGGGGSGGGGSGGGGSGGGGSGGGGSEVQLVESGGGLVQAGGSLRLSCVASGISSSKRNMGWYRQAPGKQRESVATISSGGNKDYTDAVKDRFTISRDTTKNTVYLQMNSLKPEDTAVYYCKIEAGTGWATRRGYTYWGQGTLVTVSSAAAEQKLISEEDLNGAAHHHHHH: 290
